molecular target: UniProtKB P08172; format: functional, cell-based
Sequence (P08172 whole entry): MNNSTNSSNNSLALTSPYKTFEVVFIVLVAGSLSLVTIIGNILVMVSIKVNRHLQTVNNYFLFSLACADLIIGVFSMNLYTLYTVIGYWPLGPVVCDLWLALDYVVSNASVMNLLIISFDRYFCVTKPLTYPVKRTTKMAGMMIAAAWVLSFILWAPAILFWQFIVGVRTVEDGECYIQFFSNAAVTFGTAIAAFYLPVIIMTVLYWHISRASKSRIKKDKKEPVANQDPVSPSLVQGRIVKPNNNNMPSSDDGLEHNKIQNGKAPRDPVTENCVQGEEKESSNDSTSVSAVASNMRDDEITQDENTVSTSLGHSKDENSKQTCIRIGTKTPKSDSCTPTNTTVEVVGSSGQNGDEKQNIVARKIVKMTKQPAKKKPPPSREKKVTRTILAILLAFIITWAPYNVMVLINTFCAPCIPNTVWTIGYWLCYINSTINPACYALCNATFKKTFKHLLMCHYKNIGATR
MEASUREMENT_NAME: AC50

Param item = CCc1ccc(CCOc2ccc(CC3SC(=O)NC3=O)cc2)nc1 (stereo not given) [PIOGLITAZONE] ; retrieve measured AC50.
> 10 µM

Follow-up item: CCC[C@@H]1C[C@@H](C(=O)N[C@@H]([C@H]2O[C@H](SC)[C@H](O)[C@@H](O)[C@H]2O)[C@H](C)Cl)N(C)C1 [CLINDAMYCIN]
> 10 µM

Follow-up item: CCCS(=O)(=O)Nc1ccc(F)c(C(=O)c2c[nH]c3ncc(-c4ccc(Cl)cc4)cc23)c1F [VEMURAFENIB]
> 30 µM

Follow-up item: COc1ccc2cccc(CCNC(C)=O)c2c1 [AGOMELATINE]
> 30 µM

Follow-up item: COC(=O)C1=C(C)NC(C)=C(C(=O)OC(C)C)C1c1cccc2nonc12 (stereo not given) [ISRADIPINE]
> 10 µM
